FYI, the data here is from patent US20220002432A1.

- Study system: T1, Rhesus-ICAM1 (rhesus, UniProt Q5NKV6 28-480, limits assumed)
- T1 sequence (looked up): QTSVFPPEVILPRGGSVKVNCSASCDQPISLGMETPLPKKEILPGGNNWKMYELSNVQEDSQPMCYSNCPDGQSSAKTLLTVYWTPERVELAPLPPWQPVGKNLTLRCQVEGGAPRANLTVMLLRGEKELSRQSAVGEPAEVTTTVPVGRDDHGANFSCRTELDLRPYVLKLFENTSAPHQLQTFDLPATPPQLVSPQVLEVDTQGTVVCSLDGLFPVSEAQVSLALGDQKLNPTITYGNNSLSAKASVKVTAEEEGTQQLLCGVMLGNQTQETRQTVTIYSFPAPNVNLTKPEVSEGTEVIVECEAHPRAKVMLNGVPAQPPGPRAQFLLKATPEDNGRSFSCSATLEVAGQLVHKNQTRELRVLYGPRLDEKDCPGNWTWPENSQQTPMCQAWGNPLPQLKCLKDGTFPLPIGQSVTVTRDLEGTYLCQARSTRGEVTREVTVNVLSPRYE
- Test details: SPR (Biacore 8K), antibody captured, antigen injected
Recorded measurements of koff, one per entry
Express it in s⁻¹; write the number only.

Check out these entries, answers already filled in.
- 14H1 (antibody, human IgG1, kappa, V domains shown, Rabbit-human chimeric anti-ICAM1: rabbit VH and VL on human IgG1 and kappa constant regions) VH: QSVEESGGRLVTPGTPLTLTCTVSGFSLSNYYMSWVRQAPGKGLEWIGIISDSGSTYYASWAKGRFTISKTSTTVDLSITSPTTEDTATYFCARDWSYDSTSGYYYYDMDLWGPGTLVTVSA VL: AYDMTQTPASVEVAVGGTVTIKCQASQSINSWLSWFHQKPGQPPKRLIYKASTLASGVSSRFKGSGSGTQFTLTISGVESADAATYYCQQGYSRSDGEHVFGGGTEVVVKR: 0.000434
- 5B12 (antibody, human IgG1, kappa, V domains shown, Rabbit-human chimeric anti-ICAM1: rabbit VH and VL on human IgG1 and kappa constant regions) VH: QSLEESGGRLVTPGTPLTLTCTVSGFSLSSYGMSWVRQAPGKGLEYIGWISFSGSAYYANWAKGRFTISKTSTTVDLKITSPTTEDTATYFCARGGDYGGSTYILNLWGPGTLVTVSS VL: AFELTQTPSSVEAAVGGTVTIKCQASESIDSYLSWYQQKPGQPPKLLIYAASTLASGVSSRFKGSGSGTEFTLTISDLESADAATYYCQSYSGTITTSGGAFGGGTEVVVKR: 0.00218

Next binder, please.
Reported koff of 8B12 (antibody, human IgG1, kappa, V domains shown, Rabbit-human chimeric anti-ICAM1: rabbit VH and VL on human IgG1 and kappa constant regions) VH: QSVEESGGGLVKPGGTLTLTCTVSGFSLSTHAMGWVRQAPGKGLEYIGIIGSSDRTYYASWAKGRFTISKTSTTVDLKITSPTTEDTATYFCVRDPYDSFDDGYRLWGPGTLVTVSS VL: AYDMTQTPASVEVAVGGTVTIKCQASQSIYSYLSWYQQKPGQRPKFLIYDASKVASGVPSRFKGSGSGTEFTLTISAVQSDDAATYYCQQAYSSSNVDNAFGGGTEVMVKR : 0.000658
